# experimental.details: Inhibition of beta-hematin formation assessed as reduction in acetate buffer-initiated hemozoin formation after 18 hrs by spectrophotometric method relative to control
# Parameters: concentration or dose not given beside the values
# applied.conditions: concentration not given here
Property: inhibition; scope: individual compounds
# unit: % | format: bare number

Req: Requested read-out: inhibition. Entry: CCCc1ccc(C2CC(c3ccc(O)cc3)=NN2C(=O)c2cccnc2)cc1 (stereo unspecified)
Resp: 81

Req: I am curious: what inhibition value has been reported for O=C(c1cccnc1)N1N=C(c2ccc(O)cc2)CC1c1ccccc1Cl (stereo unspecified) ?
Resp: 31

Req: Recorded inhibition for CCc1ccccc1C1CC(c2ccc(O)cc2)=NN1C(=O)c1cccnc1 (stereo unspecified) , please?
Resp: 53

Req: inhibition for COc1ccc(C2CC(c3ccc(O)cc3)=NN2C(=O)c2cccnc2)cc1C (stereo unspecified) ?
Resp: 66

---

# System: Pseudomonas aeruginosa
# experimental.details: Antibacterial activity against Pseudomonas aeruginosa MTCC 741 after 24 hrs by broth microdilution method
# Format: functional
# applied.conditions: MTCC 741, 24 h
Here the recorded log10(MIC) is given for each entry.
Annotation: log10 of MIC, µg/mL basis.

| molecule | log10(MIC) |
| --- | --- |
| CC(C)c1ccccc1C1CC(c2ccc(O)cc2)=NN1C(=O)c1cccnc1 (stereo not given) | 1.10 |
| CC(C)c1ccc(C2CC(c3ccc(O)cc3)=NN2C(=O)c2cccnc2)cc1 (stereo not given) | 1.10 |
| CC(C)Oc1ccc(C2CC(c3ccc(O)cc3)=NN2C(=O)c2cccnc2)cc1 (stereo not given) | 1.70 |

Req: Fill in the blank: the reported log10(MIC) of O=C(c1cccnc1)N1N=C(c2ccc(O)cc2)CC1c1ccccc1Cl (stereo not given) is ____.
Resp: 0.51

Req: Can you share its log10(MIC)? I mean this molecule: O=C(c1cccnc1)N1N=C(c2ccc(O)cc2)CC1c1ccc(Br)cc1 (stereo not given)
Resp: 1.10

Req: Would you kindly share the measured log10(MIC) for COc1ccc(C2CC(c3ccc(O)cc3)=NN2C(=O)c2cccnc2)cc1 (stereo not given) ?
Resp: 1.40

Req: Fill in: log10(MIC) of CCCc1ccc(C2CC(c3ccc(O)cc3)=NN2C(=O)c2cccnc2)cc1 (stereo not given) is ___
Resp: 1.10

Req: Entry O=C(c1cccnc1)N1N=C(c2ccc(O)cc2)CC1c1ccc(F)cc1 (stereo not given) : reported log10(MIC) = ?
Resp: 1.10

---

# experimental.details: Selectivity index, ratio of IC50 for human HepG2 cells to IC50 for chloroquine-resistant Plasmodium falciparum RKL-9 schizont infected in RBC
# Type: toxicity
# applied.conditions: read-out: Ratio IC50
observable: selectivity ratio

| compound | observable | reported.measurement |
| --- | --- | --- |
| O=C(c1cccnc1)N1N=C(c2ccc(O)cc2)CC1c1ccccc1Cl (stereo not given) | selectivity ratio | 20.5 |
| O=C(c1cccnc1)N1N=C(c2ccc(O)cc2)CC1c1ccc(OCc2ccccc2)cc1 (stereo not given) | selectivity ratio | 4.48 |
| COc1ccc(OC)c(C2CC(c3ccc(O)cc3)=NN2C(=O)c2cccnc2)c1 (stereo not given) | selectivity ratio | 172 |
| COc1ccc(C2CC(c3ccc(O)cc3)=NN2C(=O)c2cccnc2)cc1 (stereo not given) | selectivity ratio | 76.3 |
| COc1ccc(C2CC(c3ccc(O)cc3)=NN2C(=O)c2cccnc2)cc1C (stereo not given) | selectivity ratio | 57.5 |

Req: Given O=C(c1cccnc1)N1N=C(c2ccc(O)cc2)CC1c1ccc(Br)cc1 (stereo not given) , state its recorded selectivity ratio.
Resp: 60.5

Req: Please look up its selectivity ratio: O=C(c1cccnc1)N1N=C(c2ccc(O)cc2)CC1c1ccc([N+](=O)[O-])cc1 (stereo not given)
Resp: 7.63

Req: Form field: reported selectivity ratio of COc1ccc(C2CC(c3ccc(O)cc3)=NN2C(=O)c2cccnc2)cc1OC (stereo not given)
Resp: 213

Req: Could you share which selectivity ratio value was measured for CC(C)c1ccc(C2CC(c3ccc(O)cc3)=NN2C(=O)c2cccnc2)cc1 (stereo not given) ?
Resp: 83.3

Req: Would you kindly share the measured selectivity ratio for O=C(c1cccnc1)N1N=C(c2ccc(O)cc2)CC1c1ccc(F)cc1 (stereo not given) ?
Resp: 18.1

Req: Consider the compound CCCc1ccc(C2CC(c3ccc(O)cc3)=NN2C(=O)c2cccnc2)cc1 (stereo not given) and give its measured selectivity ratio.
Resp: 216

Req: Given the compound CCc1ccccc1C1CC(c2ccc(O)cc2)=NN1C(=O)c1cccnc1 (stereo not given) , what is its reported selectivity ratio?
Resp: 75.1

Req: Param item = CC(C)Oc1ccc(C2CC(c3ccc(O)cc3)=NN2C(=O)c2cccnc2)cc1 (stereo not given) ; retrieve measured selectivity ratio.
Resp: 139

Req: Which selectivity ratio reading was recorded for the compound CC(C)c1ccccc1C1CC(c2ccc(O)cc2)=NN1C(=O)c1cccnc1 (stereo not given) ?
Resp: 30.1

Req: Which selectivity ratio is reported for this compound? Cc1cc(C)c(C2CC(c3ccc(O)cc3)=NN2C(=O)c2cccnc2)c(C)c1 (stereo not given)
Resp: 100

Numbers sourced from ChEMBL document CHEMBL3992561.
